These data points were gathered from patent US20110118131A1.

# Target Of Assay: IL-1β (UniProt P01584 117-269)
# Measurement Description: Biacore, Fab periplasmic extract on IL-1β
Assay Readout: fold difference in affinity vs original (fold)
Give the value in fold but do not write fold after it.

XPA23 light chain L96I (Fab, V domains shown, Single light chain substitution; Fab in periplasmic extract; also called C5A (XPA23) L96I) VH: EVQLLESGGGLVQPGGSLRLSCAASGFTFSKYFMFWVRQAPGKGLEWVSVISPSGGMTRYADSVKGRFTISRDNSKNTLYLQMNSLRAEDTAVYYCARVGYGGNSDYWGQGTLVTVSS VL: DIQMTQSPSSVSASVGDRLTIICRASQDINRWLAWYQQTPGNAPKLLIHSATSLQSGVPSRFSGSGSGTDFTLTINSLQPEDFATYYCQQADSFPITFGGGTKVEIK : 0.67
XPA23 light chain F94I (Fab, V domains shown, Single light chain substitution; Fab in periplasmic extract; also called C5A (XPA23) F94I) VH: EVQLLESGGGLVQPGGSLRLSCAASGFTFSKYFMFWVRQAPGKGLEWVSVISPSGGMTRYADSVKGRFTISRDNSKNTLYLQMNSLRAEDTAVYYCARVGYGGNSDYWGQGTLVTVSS VL: DIQMTQSPSSVSASVGDRLTIICRASQDINRWLAWYQQTPGNAPKLLIHSATSLQSGVPSRFSGSGSGTDFTLTINSLQPEDFATYYCQQADSIPLTFGGGTKVEIK : 0.88
XPA23 light chain P95A (Fab, V domains shown, Single light chain substitution; Fab in periplasmic extract; also called C5A (XPA23) P95A) VH: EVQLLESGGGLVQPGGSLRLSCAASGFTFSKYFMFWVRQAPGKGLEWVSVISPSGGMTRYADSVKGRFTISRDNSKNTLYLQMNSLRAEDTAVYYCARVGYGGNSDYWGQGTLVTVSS VL: DIQMTQSPSSVSASVGDRLTIICRASQDINRWLAWYQQTPGNAPKLLIHSATSLQSGVPSRFSGSGSGTDFTLTINSLQPEDFATYYCQQADSFALTFGGGTKVEIK : 3.83
XPA23 light chain D92L (Fab, V domains shown, Single light chain substitution; Fab in periplasmic extract; also called C5A (XPA23) D92L) VH: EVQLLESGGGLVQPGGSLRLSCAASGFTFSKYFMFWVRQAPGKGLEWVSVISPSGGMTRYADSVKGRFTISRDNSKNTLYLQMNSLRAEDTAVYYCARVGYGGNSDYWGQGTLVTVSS VL: DIQMTQSPSSVSASVGDRLTIICRASQDINRWLAWYQQTPGNAPKLLIHSATSLQSGVPSRFSGSGSGTDFTLTINSLQPEDFATYYCQQALSFPLTFGGGTKVEIK : 0.14
XPA23 light chain D92T (Fab, V domains shown, Single light chain substitution; Fab in periplasmic extract; also called C5A (XPA23) D92T) VH: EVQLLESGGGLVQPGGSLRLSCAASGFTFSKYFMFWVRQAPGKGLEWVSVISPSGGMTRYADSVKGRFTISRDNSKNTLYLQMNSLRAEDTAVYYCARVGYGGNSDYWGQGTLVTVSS VL: DIQMTQSPSSVSASVGDRLTIICRASQDINRWLAWYQQTPGNAPKLLIHSATSLQSGVPSRFSGSGSGTDFTLTINSLQPEDFATYYCQQATSFPLTFGGGTKVEIK : 0.34
XPA23 light chain A91V (Fab, V domains shown, Single light chain substitution; Fab in periplasmic extract; also called C5A (XPA23) A91V) VH: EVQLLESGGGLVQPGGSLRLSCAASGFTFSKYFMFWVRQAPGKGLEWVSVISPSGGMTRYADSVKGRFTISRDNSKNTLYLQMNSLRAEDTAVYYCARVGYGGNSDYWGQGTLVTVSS VL: DIQMTQSPSSVSASVGDRLTIICRASQDINRWLAWYQQTPGNAPKLLIHSATSLQSGVPSRFSGSGSGTDFTLTINSLQPEDFATYYCQQVDSFPLTFGGGTKVEIK : 0.51
XPA23 light chain S93A (Fab, V domains shown, Single light chain substitution; Fab in periplasmic extract; also called C5A (XPA23) S93A) VH: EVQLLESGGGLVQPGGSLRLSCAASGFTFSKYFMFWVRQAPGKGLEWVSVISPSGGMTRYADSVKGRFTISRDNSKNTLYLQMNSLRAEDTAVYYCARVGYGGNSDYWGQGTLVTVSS VL: DIQMTQSPSSVSASVGDRLTIICRASQDINRWLAWYQQTPGNAPKLLIHSATSLQSGVPSRFSGSGSGTDFTLTINSLQPEDFATYYCQQADAFPLTFGGGTKVEIK : 1.16
XPA23 light chain D92G (Fab, V domains shown, Single light chain substitution; Fab in periplasmic extract; also called C5A (XPA23) D92G) VH: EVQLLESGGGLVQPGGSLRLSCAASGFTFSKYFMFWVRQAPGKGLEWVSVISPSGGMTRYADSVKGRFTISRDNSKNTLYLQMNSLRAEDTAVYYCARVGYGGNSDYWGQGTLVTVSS VL: DIQMTQSPSSVSASVGDRLTIICRASQDINRWLAWYQQTPGNAPKLLIHSATSLQSGVPSRFSGSGSGTDFTLTINSLQPEDFATYYCQQAGSFPLTFGGGTKVEIK : 0.26

In: State the recorded fold difference in affinity vs original for this entry: XPA23 light chain S93I (Fab, V domains shown, Single light chain substitution; Fab in periplasmic extract; also called C5A (XPA23) S93I) VH: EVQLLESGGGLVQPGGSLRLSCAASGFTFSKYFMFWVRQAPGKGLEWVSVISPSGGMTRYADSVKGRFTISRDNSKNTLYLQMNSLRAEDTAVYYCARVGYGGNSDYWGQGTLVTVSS VL: DIQMTQSPSSVSASVGDRLTIICRASQDINRWLAWYQQTPGNAPKLLIHSATSLQSGVPSRFSGSGSGTDFTLTINSLQPEDFATYYCQQADIFPLTFGGGTKVEIK
Out: 1.35

In: Same lookup for XPA23 light chain S93L (Fab, V domains shown, Single light chain substitution; Fab in periplasmic extract; also called C5A (XPA23) S93L) VH: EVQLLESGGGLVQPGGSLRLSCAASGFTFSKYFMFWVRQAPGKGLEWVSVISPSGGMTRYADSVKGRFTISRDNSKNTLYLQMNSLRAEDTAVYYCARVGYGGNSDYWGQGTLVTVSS VL: DIQMTQSPSSVSASVGDRLTIICRASQDINRWLAWYQQTPGNAPKLLIHSATSLQSGVPSRFSGSGSGTDFTLTINSLQPEDFATYYCQQADLFPLTFGGGTKVEIK , please.
Out: 1.08
